# Tested on: Ps. Aeruginosa A5007
# procedure.details: Second in vitro MIC test, Brain Heart Infusion Broth (BHIB)
# Assay type: cell-based
measurement.type: MIC (µg/mL)
Report only the number, with the unit µg/mL understood.

Problem: Which MIC value is on record for NCC(=O)NC1CCN(c2nc3c(cc2F)c(=O)c(C(=O)O)cn3-c2ccc(F)cc2F)C1 (stereo not shown) ?
Solution: 12.5

Problem: Which MIC value is on record for O=C(O)c1cn(-c2ccc(F)cc2F)c2nc(N3CCC(NC(=O)C4CCCN4)C3)c(F)cc2c1=O (stereo not shown) ?
Solution: 12.5

Problem: Which MIC value is on record for CSCCC(N)C(=O)NC1CCN(c2nc3c(cc2F)c(=O)c(C(=O)O)cn3-c2ccc(F)cc2F)C1 (stereo not shown) ?
Solution: 5.0

Problem: Which MIC value is on record for CC(C)CC(N)C(=O)NC1CCN(c2nc3c(cc2F)c(=O)c(C(=O)O)cn3-c2ccc(F)cc2F)C1 (stereo not shown) ?
Solution: 25

Problem: Which MIC value is on record for CC(N)C(=O)NC1CCN(c2nc3c(cc2F)c(=O)c(C(=O)O)cn3-c2ccc(F)cc2F)C1 (stereo not shown) ?
Solution: 16

Problem: Which MIC value is on record for NC(Cc1ccc(O)cc1)C(=O)NC1CCN(c2nc3c(cc2F)c(=O)c(C(=O)O)cn3-c2ccc(F)cc2F)C1 (stereo not shown) ?
Solution: 50

Problem: Which MIC value is on record for CC(N)C(=O)NC(Cc1ccccc1)C(=O)NC1CCN(c2nc3c(cc2F)c(=O)c(C(=O)O)cn3-c2ccc(F)cc2F)C1 (stereo not shown) ?
Solution: 128

* * *

Examples of compounds with documented Oral (ED50) follow.
# System: P. Aeruginosa A5007
# procedure.details: Acute mouse protection test
# Format: in vivo
# test.parameters: mice infected i.p. with P. Aeruginosa A5007; oral dosing at 1 and 5 hours post-infection; observed 7 days
Report only the number, with the unit mg/kg/day understood.

CCCC(N)C(=O)NC1CCN(c2cc3c(cc2F)c(=O)c(C(=O)O)cn3-c2ccc(F)cc2F)C1 (stereo not shown) [Example 26b] : 18.2

Problem: Which Oral (ED50) value is on record for CSCCC(N)C(=O)NC1CCN(c2nc3c(cc2F)c(=O)c(C(=O)O)cn3-c2ccc(F)cc2F)C1 (stereo not shown) ?
Solution: 11.5

Problem: Which Oral (ED50) value is on record for Cl.Cl.NCCCC[C@H](N)C(=O)NC1CCN(c2nc3c(cc2F)c(=O)c(C(=O)O)cn3-c2ccc(F)cc2F)C1 (stereo partly shown) ?
Solution: 12.5

Problem: Which Oral (ED50) value is on record for NC1CCN(c2nc3c(cc2F)c(=O)c(C(=O)O)cn3-c2ccc(F)cc2F)C1 (stereo not shown) [tosufloxacin, reference compound] ?
Solution: 6.2

* * *

Structures can show the parent of a compound that is named as a salt.
In plain terms, low Solubility pH 7.4, meaning strictly below 0.3 mg/ml, gives true (1), and everything else gives false (0).

Reference set, count: 3
CSCC[C@H](NC(=O)[C@H](C)N)C(=O)NC1CCN(c2nc3c(cc2F)c(=O)c(C(=O)O)cn3-c2ccc(F)cc2F)C1 (stereo partly shown) [Example 55n] : false (0)
CSCC[C@H](NC(=O)[C@@H](N)CCSC)C(=O)NC1CCN(c2nc3c(cc2F)c(=O)c(C(=O)O)cn3-c2ccc(F)cc2F)C1 (stereo partly shown) [Example 55o] : false (0)
N[C@@H](CC(=O)O)C(=O)NC1CCN(c2nc3c(cc2F)c(=O)c(C(=O)O)cn3-c2ccc(F)cc2F)C1 (stereo partly shown) [Example 45, hydrochloride] : false (0)

Problem: Please determine if NC(Cc1ccc(O)cc1)C(=O)NC1CCN(c2nc3c(cc2F)c(=O)c(C(=O)O)cn3-c2ccc(F)cc2F)C1 (stereo not shown) is below 0.3 mg/ml in terms of Solubility pH 7.4.
Solution: true (1)

Problem: Please determine if CC(C)CC(N)C(=O)NC1CCN(c2nc3c(cc2F)c(=O)c(C(=O)O)cn3-c2ccc(F)cc2F)C1 (stereo not shown) is below 0.3 mg/ml in terms of Solubility pH 7.4.
Solution: true (1)

Problem: Please determine if CC(N)C(=O)NC(Cc1ccccc1)C(=O)NC1CCN(c2nc3c(cc2F)c(=O)c(C(=O)O)cn3-c2ccc(F)cc2F)C1 (stereo not shown) is below 0.3 mg/ml in terms of Solubility pH 7.4.
Solution: false (0)

Problem: Please determine if CC(N)C(=O)NC1CCN(c2nc3c(cc2F)c(=O)c(C(=O)O)cn3-c2ccc(F)cc2F)C1 (stereo not shown) is below 0.3 mg/ml in terms of Solubility pH 7.4.
Solution: true (1)

* * *

# Tested on: P. Aeruginosa A5007
# procedure.details: Acute mouse protection test
# Assay type: in vivo
# test.parameters: mice infected i.p. with P. Aeruginosa A5007; oral dosing at 1 and 5 hours post-infection; observed 7 days
Where a name gives a salt, the structure may show the parent alone.
Examples of compounds with documented Oral (ED50) follow.
Report only the number, with the unit mg/kg/day understood.

CC(N)C(=O)NC1CCN(c2c(F)cc3c(=O)c(C(=O)O)cn(C4CC4)c3c2F)C1 (stereo not shown) [Example 26s] : 5.0
NC(=O)C[C@H](N)C(=O)NC1CCN(c2nc3c(cc2F)c(=O)c(C(=O)O)cn3-c2ccc(F)cc2F)C1 (stereo partly shown) [Example 41, hydrochloride] : 17.2
CC(N)C(=O)NC(Cc1ccccc1)C(=O)NC1CCN(c2nc3c(cc2F)c(=O)c(C(=O)O)cn3-c2ccc(F)cc2F)C1 (stereo not shown) [Example 11] : 65.3
CC(N)C(=O)NC1CCN(c2nc3c(cc2F)c(=O)c(C(=O)O)cn3-c2ccc(F)cc2F)C1 (stereo not shown) [Example 17] : 12.5
CC(C)CC(N)C(=O)NC1CCN(c2nc3c(cc2F)c(=O)c(C(=O)O)cn3-c2ccc(F)cc2F)C1 (stereo not shown) [Example 21] : 12.5
CC(N)C(=O)NC(C)C(=O)NC1CCN(c2nc3c(cc2F)c(=O)c(C(=O)O)cn3-c2ccc(F)cc2F)C1 (stereo not shown) [Example 15] : 9.1

Kindly consider the entry below.
Problem: Which Oral (ED50) value is on record for N[C@@H](Cc1cnc[nH]1)C(=O)NC1CCN(c2nc3c(cc2F)c(=O)c(C(=O)O)cn3-c2ccc(F)cc2F)C1 (stereo partly shown) [Example 44c, hydrochloride] ?
Solution: 51.3

* * *

# procedure.details: Conversion of prodrug to parent drug in whole blood at 37° C.
# Assay type: in vitro ADME, Dog
measurement.type: Half Life Dog (s)
Report only the number, with the unit s understood.

Solved cases below.
CCC[C@H](N)C(=O)NC1CCN(c2nc3c(cc2F)c(=O)c(C(=O)O)cn3CC)C1 (stereo partly shown) [Example 26ff] : 92.6
CCCC(N)C(=O)NC1CCN(c2c(F)cc3c(=O)c(C(=O)O)cn(C4CC4)c3c2F)C1 (stereo not shown) [Example 26r] : 71.7
CC(C)CC(N)C(=O)NC1CCN(c2nc3c(cc2F)c(=O)c(C(=O)O)cn3C2CC2)C1 (stereo not shown) [Example 26o] : 108.6
CCCC(N)C(=O)NC1CCN(c2cc3c(cc2F)c(=O)c(C(=O)O)cn3-c2ccc(F)cc2)C1 (stereo not shown) [Example 26h] : 51.1
CCCC(N)C(=O)NC1CCN(c2cc3c(cc2F)c(=O)c(C(=O)O)cn3-c2ccc(F)cc2F)C1 (stereo not shown) [Example 26b] : 43.4

Kindly consider the entry below.
Problem: Which Half Life Dog value is on record for CC(N)C(=O)NC1CCN(c2nc3c(cc2F)c(=O)c(C(=O)O)cn3-c2ccc(F)cc2F)C1 (stereo not shown) ?
Solution: 97.0

* * *

# procedure.details: Conversion of prodrug to parent drug in whole blood at 37° C.
# Type: in vitro ADME, Dog
Examples of compounds with documented Half Life Dog follow.
Report only the number, with the unit s understood.

Solved cases below.
CCCC(N)C(=O)NC1CCN(c2cc3c(cc2F)c(=O)c(C(=O)O)cn3C2CC2)C1 (stereo not drawn) [Example 26l] : 118.5
CCCC(N)C(=O)NC1CCN(c2nc3c(cc2F)c(=O)c(C(=O)O)cn3-c2ccc(F)cc2)C1 (stereo not drawn) [Example 26i] : 108.1

Problem: Which Half Life Dog value is on record for CC(C)CC(N)C(=O)NC1CCN(c2nc3c(cc2F)c(=O)c(C(=O)O)cn3-c2ccc(F)cc2F)C1 (stereo not drawn) [Example 21] ?
Solution: 55.8

Problem: Which Half Life Dog value is on record for CSCCC(N)C(=O)NC1CCN(c2nc3c(cc2F)c(=O)c(C(=O)O)cn3-c2ccc(F)cc2F)C1 (stereo not drawn) [Example 23] ?
Solution: 99.1

Problem: Which Half Life Dog value is on record for CCCC(N)C(=O)NC1CCN(c2nc3c(cc2F)c(=O)c(C(=O)O)cn3C2CC2)C1 (stereo not drawn) [Example 26p] ?
Solution: 70.1
